molecular target: D(2) dopamine receptor (Rattus norvegicus, UniProt P61169); test: Displacement of [3H]raclopride from rat dopamine D2 receptor
Sequence (P61169 whole entry): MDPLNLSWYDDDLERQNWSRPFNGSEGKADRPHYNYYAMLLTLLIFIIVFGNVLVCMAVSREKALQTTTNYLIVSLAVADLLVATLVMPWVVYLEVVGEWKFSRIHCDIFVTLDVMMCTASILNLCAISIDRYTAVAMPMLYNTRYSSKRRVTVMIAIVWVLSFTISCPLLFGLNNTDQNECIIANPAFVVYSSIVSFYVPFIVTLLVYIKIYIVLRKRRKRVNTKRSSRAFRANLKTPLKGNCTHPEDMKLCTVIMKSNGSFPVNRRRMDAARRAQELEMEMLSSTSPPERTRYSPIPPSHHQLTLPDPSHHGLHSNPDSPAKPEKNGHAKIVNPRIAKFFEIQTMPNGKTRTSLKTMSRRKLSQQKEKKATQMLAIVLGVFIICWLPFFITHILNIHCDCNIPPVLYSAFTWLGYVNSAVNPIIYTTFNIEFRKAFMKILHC
pKi: −log10 of the molar value.
property.name: pKi

Observe how each entry below is paired with its result.
[
  {
    "molecule": "CCCN1CCc2cccc3c2[C@H]1Cc1ccc(C)c(O)c1-3",
    "pKi": 6.60
  },
  {
    "molecule": "COc1cc2c(cc1O)C[C@H]1c3c(c(Br)c(O)c(OC)c3-2)CCN1C [3-BROMOBOLDINE]",
    "pKi": 6.13
  }
]

(P) CCCN1CCc2cc(O)cc3c2C1Cc1ccccc1C3 (configuration not stated)
(Q) CN1CCc2cc(O)cc3c2C1Cc1ccccc1C3 (configuration not stated)
(R) CN1CCc2ccc3c4c2[C@H]1Cc1cccc(c1-4)[C@H]3N
(S) CN1CCc2ccc3oc(=O)c4cccc5c4c3c2[C@H]1C5
Order the items by recorded pKi; the first position goes to the largest value. // list labels; follow requested order
R, S, Q, P
(R: 6.59, S: 6.27, Q: 5.05, P: 4.40)

* * *

target: D(2) dopamine receptor (Rattus norvegicus); test: Displacement of [3H]raclopride from rat dopamine D2 receptor
property.name: IC50 (nM)

[
  {
    "compound.smiles": "COc1c2c3c(c4c1OCO4)-c1ccccc1C[C@H]3NCC2",
    "IC50 / nM": 27000
  },
  {
    "compound.smiles": "CCCN1CCc2cc(OC)cc3c2[C@H]1Cc1ccc(O)c(O)c1-3",
    "IC50 / nM": 10.2
  },
  {
    "compound.smiles": "COc1c(O)c2c3c(c1OC)CCN[C@@H]3Cc1ccccc1-2",
    "IC50 / nM": 30000
  }
]

(1) COc1ccc2c(c1O)Oc1c(O)ccc3c1[C@H](C2)N(C)CC3
(2) COc1cc2c(cc1O)Oc1c(O)ccc3c1[C@H](C2)N(C)CC3
From the items above, decide which of 1 and 2 has the lower IC50 reading. Which one? Tell me its label.
2
(2: 30 nM, 1: 1500 nM)

* * *

molecular target: D(1A) dopamine receptor (Rattus norvegicus); experiment: Displacement of [3H]SCH-23390 from rat dopamine D1 receptor
Sequence (P18901 whole entry): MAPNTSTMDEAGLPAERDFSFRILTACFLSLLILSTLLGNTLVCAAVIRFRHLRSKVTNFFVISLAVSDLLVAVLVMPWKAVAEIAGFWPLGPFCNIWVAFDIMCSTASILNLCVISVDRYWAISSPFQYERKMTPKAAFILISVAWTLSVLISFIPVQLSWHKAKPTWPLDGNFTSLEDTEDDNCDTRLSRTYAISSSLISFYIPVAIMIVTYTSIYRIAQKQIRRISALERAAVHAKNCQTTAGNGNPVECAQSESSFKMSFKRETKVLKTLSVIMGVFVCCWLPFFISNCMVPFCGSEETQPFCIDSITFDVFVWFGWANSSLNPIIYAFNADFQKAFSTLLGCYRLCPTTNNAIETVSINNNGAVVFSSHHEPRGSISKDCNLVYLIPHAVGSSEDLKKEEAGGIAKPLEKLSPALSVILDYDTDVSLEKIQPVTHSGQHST
property.name: IC50 (µM)

Observe how each entry below is paired with its result.
[
  {
    "compound": "COc1c(O)c2c3c(c1OC)CCN(C)C3Cc1ccccc1-2 (configuration not stated)",
    "property.name": "IC50",
    "unit.of.measure": "µM",
    "recorded.result": 17.2
  },
  {
    "compound": "O=C1c2ccccc2-c2c3c(cc4ccnc1c24)OCO3 [LIRIODENINE]",
    "property.name": "IC50",
    "unit.of.measure": "µM",
    "recorded.result": 75
  },
  {
    "compound": "CN1CCc2cc3c(c4c2C1Cc1cccc(O)c1-4)OCO3 (configuration not stated) [PUKATEINE]",
    "property.name": "IC50",
    "unit.of.measure": "µM",
    "recorded.result": 0.4
  },
  {
    "compound": "COc1c(O)c2c3c(nccc3c1OC)C(C)(C)c1cc(O)ccc1-2 [MELOSMINE]",
    "property.name": "IC50",
    "unit.of.measure": "µM",
    "recorded.result": 12.5
  },
  {
    "compound": "COc1cc2c(cc1O)Oc1c(O)ccc3c1[C@H](C2)N(C)CC3 [CELTISINE]",
    "property.name": "IC50",
    "unit.of.measure": "µM",
    "recorded.result": 0.06
  }
]

(A) COc1ccc2c(c1O)Oc1c(OC)ccc3c1[C@H](C2)N(C)CC3 [SARCOCAPNIDINE]
(B) COc1cc2c(cc1OC)Oc1c(O)ccc3c1[C@H](C2)N(C)CC3 [CULARIDINE]
From the items above, decide which of A and B has the lower IC50 reading. Which one? Tell me its label.
B
